SETUP_CONDITIONS: rat; liver microsomes; pH 7.4; 15.0 min; 1.0 µM
MEASURED_PARAMETER: half-life (min)
State just the number; it will be interpreted in min.

Here is how some compounds turned out for half-life.
| COMPOUND | UNITS_TEXT | half-life |
| --- | --- | --- |
| CC(=O)c1c(C)[nH]c(C(=O)Nc2ccc(C)c(S(=O)(=O)Nc3ccc(Br)cc3)c2)c1C | min | 19 |
| Cc1ccc(-c2cc(C(=O)Nc3cccc(S(=O)(=O)Nc4nccs4)c3)c3ccccc3n2)cc1C | min | 14 |
| CCOc1ccc(CCNC(=O)c2cc3ncccc3n2Cc2cccc(C)n2)cc1OCC | min | 6.7 |
| CC(=O)N1CCN(c2ccc(OCc3nn(C)c(C)c3-c3cccc4c(CCCOc5cc(C)c(Cl)c(C)c5)c(C(=O)O)n(Cc5cccnc5)c34)cc2)CC1 | min | 8.9 |
| Cc1cc(-c2nnc3n2CCCCC3)c(C)n1-c1ccc(C(F)(F)F)cc1 | min | 2.1 |

Challenge: Which half-life reading was recorded for the compound Cc1ccccc1C(C(=O)NC1CCCCC1)N(C(=O)Cn1ccnc1C)c1cccc(F)c1 (centres undefined) ?
Response given: 5.62

Challenge: Next compound up: COc1cccc(-c2csc(NC(=O)c3ccncc3NS(=O)(=O)c3ccc(C)cc3)n2)c1
Response given: 1.85

Challenge: Next compound up: Cc1ccc(NC2=C(c3ccc(C(F)(F)F)cc3)C(=O)c3ccccc32)cc1C
Response given: 5.08
